Data credit: patent US20240336672A1

# TARGET_OR_SYSTEM: SARS-CoV-2 S1 domain, Wuhan (SARS-CoV-2, UniProt P0DTC2 16-681)
# EXPERIMENTAL_DETAILS: ELISA, coated antigen; note: test concentration or dose not given here
REPORTED_ENDPOINT: ELISA OD (OD)
Field format: number, assumed OD, no unit text.

[ask] Consider the binder Cv2.3194 (recombinant human IgG1) (antibody, V domains shown) VH: EVQLVESGGGLIQPGGSLRLSCAASGITVTSNYMSWVRQAPGKGLEWVSVIYPGGSTFYADSVKGRFTISRDNSKNTLYLQMNSLRAEDTAVYYCARDLVVYGMDVWGQGTTVTVSS VL: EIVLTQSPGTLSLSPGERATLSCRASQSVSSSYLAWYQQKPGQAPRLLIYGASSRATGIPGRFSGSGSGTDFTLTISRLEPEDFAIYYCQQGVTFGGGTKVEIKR and give its recorded ELISA OD.
[reply] 3.7
